# system_name: BRD4 BD2 (Homo sapiens (Human))
# measurement_notes: Bromodomain binding assay (T7 phage display, qPCR), BRD4 BD2
# details: read-out: BRD4 BD2 Kd
pKd: −log10 of the molar value.
observable: pKd

Previously resolved entries follow.
| compound | system_name | pKd |
| --- | --- | --- |
| Cc1cc(F)cc(C)c1Oc1c(-c2ccc(=O)n(C)c2)ccn(C)c1=O [Example 39] | BRD4 BD2 (Homo sapiens (Human)) | 6.00 to 7.00 |
| Cn1cc(-c2cccc(O)c2Oc2ccccc2)c2cc[nH]c2c1=O [Example 1] | BRD4 BD2 (Homo sapiens (Human)) | ≥ 8.00 |
| CCCOc1ncsc1-c1cn(C)c(=O)c2[nH]ccc12 [Example 46] | BRD4 BD2 (Homo sapiens (Human)) | 7.00 to 8.00 |
| Cn1cc(-c2c(O)cccc2Oc2ccccc2)c2cc[nH]c2c1=O [Example 3] | BRD4 BD2 (Homo sapiens (Human)) | ≥ 8.00 |
| Cc1cc(F)cc(C)c1Oc1c(-c2cn(C)c(=O)c3[nH]c(C(=O)NC(C)(C)C(F)(F)F)cc23)ccn(C)c1=O [Example 43] | BRD4 BD2 (Homo sapiens (Human)) | 7.00 to 8.00 |
| Cc1cc(F)cc(C)c1Oc1c(-c2cn(C)c(=O)c3[nH]ccc23)ccn(C)c1=O [Example 40] | BRD4 BD2 (Homo sapiens (Human)) | 7.00 to 8.00 |

Per the records, this compound ( Cc1cc(F)cc(C)c1Oc1c(-c2cn(C)c(=O)c3[nH]ccc23)ccn(C)c1=O [Example 47] ) has pKd equal to ≥ 8.00

Per the records, this compound ( Cn1ccc(-c2cn(C)c(=O)c3[nH]ccc23)c(Oc2ccccc2)c1=O [Example 5] ) has pKd equal to ≥ 8.00

Per the records, this compound ( Cn1cc(-c2scnc2OC2CCC2)c2cc[nH]c2c1=O [Example 45] ) has pKd equal to 7.00 to 8.00

Per the records, this compound ( Cc1cc(F)cc(C)c1Oc1c(-c2cn(C)c(=O)c3[nH]c(C(=O)NC(C)(C)C)cc23)ccn(C)c1=O [Example 42] ) has pKd equal to ≥ 8.00

Per the records, this compound ( Cn1cc(Oc2ccccc2)c(-c2cn(C)c(=O)c3[nH]ccc23)cc1=O [Example 7] ) has pKd equal to ≥ 8.00

---

# system_name: BRDT(2) (Homo sapiens (Human), UniProt Q58F21)
# measurement_notes: Bromodomain binding assay, BRDT(2)
# details: dose response
pKd: −log10 of the molar value.
observable: pKd

Per the records, this molecule ( "CCNC(=O)c1cc2c(-c3ccn(C)c(=O)c3Oc3c(C)cc(F)cc3C)cn(C)c(=O)c2[nH]1" ) has pKd equal to > 8.00

---

# System: CD4+ T-cells stimulated by CD2, CD3 and CD28 antibodies
# measurement_notes: Cellular activity IL-4: reduction of IL-4 levels in activated CD4+ T-cells
# Format: cell-based, human
# details: Homo sapiens, T-cell; 48 hrs, ELISA; read-out: EC50 reduction of IL-4 levels
observable: EC50

Previously resolved entries follow.
| compound | reported_value |
| --- | --- |
| Cn1cc(-c2scnc2Oc2ccccc2)c2cc[nH]c2c1=O [Example 4] | 10 to 100 nM |
| Cn1cc(Oc2cccc(O)c2)c(-c2cn(C)c(=O)c3[nH]ccc23)cc1=O [Example 24] | 100 to 1000 nM |
| Cc1cc(F)cc(C)c1Oc1c(-c2cn(C)c(=O)c3[nH]c(C(=O)NC(C)(C)C)cc23)ccn(C)c1=O [Example 42] | 100 to 1000 nM |

Per the records, this compound ( Cc1cc(F)cc(C)c1Oc1c(-c2cn(C)c(=O)c3[nH]c(C(=O)NC(C)(C)C(F)(F)F)cc23)ccn(C)c1=O [Example 43] ) has EC50 equal to 100 to 1000 nM

Per the records, this compound ( Cn1cc(-c2c(O)cccc2Oc2ccccc2)c2cc[nH]c2c1=O [Example 3] ) has EC50 equal to 10 to 100 nM

Per the records, this compound ( CCNC(=O)c1cc2c(-c3ccn(C)c(=O)c3Oc3c(C)cc(F)cc3C)cn(C)c(=O)c2[nH]1 [Example 41] ) has EC50 equal to 10 to 100 nM

Per the records, this compound ( Cn1cc(-c2scnc2Oc2ccccc2)ccc1=O [Example 18] ) has EC50 equal to > 1000 nM

Per the records, this compound ( CCCOc1ncsc1-c1cn(C)c(=O)c2[nH]ccc12 [Example 46] ) has EC50 equal to 10 to 100 nM
